# koff per record follows
Molecular target: T1, SARS-CoV-2 S1 (aa16-685) (Wuhan) (SARS-CoV-2 Wuhan, UniProt P0DTC2 16-685)
T1 construct: NRC; FLAG, 6xHis tags
Experiment: SPR, antigen on chip
Express the result in s⁻¹ but write the number alone.

Completed entries (count: 3):
NRCoV2-11 VHH (VHH) VHH: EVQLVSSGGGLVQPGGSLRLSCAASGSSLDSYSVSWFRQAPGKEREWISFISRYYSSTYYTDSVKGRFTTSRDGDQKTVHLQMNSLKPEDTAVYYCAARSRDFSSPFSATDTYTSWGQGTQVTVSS ... 0.00018
NRCoV2-20 VHH (VHH) VHH: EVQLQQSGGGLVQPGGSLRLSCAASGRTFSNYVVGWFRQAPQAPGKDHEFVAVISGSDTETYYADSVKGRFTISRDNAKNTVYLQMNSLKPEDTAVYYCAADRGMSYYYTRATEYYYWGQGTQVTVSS ... 0.0189
NRCoV2-17 VHH (VHH) VHH: EVQLQQSGGGLVQTGGSLRLSCAAAGSPFSQLAMSWYRQISGKERAWVASISPTGNRSYSKIAKGRFTISRDNAKNTVTLQMTSLKPEDTAAYICQAANVNGGDYWGQGTQVTVSS ... 9.66e-05

Please turn your attention to the following entry.
stdin: What value of measured koff is listed for NRCoV2-15 VHH (VHH) VHH: EVQLVSSGGGLVEAGGSLRLSCIASGSTSGRNTMGWFRQAPGKQREWVAIVSTSGATNYAGSVKGRFTLSRDNAKNAVYLQMNNLKPEDTAVYYCYAAYGGGGDYWGQGTQVTVSS ?
stdout: 0.000225
